target: PXR (NR1I2); readout CYP3A4/5 mRNA (Homo sapiens); assay: Induction of PXR in human primary hepatocytes assessed as upregulation of CYP3A4/5 mRNA expression at 10 uM after 48 hrs relative to rifampicin; type: ADME, cell-based
Sequence (O75469 whole entry): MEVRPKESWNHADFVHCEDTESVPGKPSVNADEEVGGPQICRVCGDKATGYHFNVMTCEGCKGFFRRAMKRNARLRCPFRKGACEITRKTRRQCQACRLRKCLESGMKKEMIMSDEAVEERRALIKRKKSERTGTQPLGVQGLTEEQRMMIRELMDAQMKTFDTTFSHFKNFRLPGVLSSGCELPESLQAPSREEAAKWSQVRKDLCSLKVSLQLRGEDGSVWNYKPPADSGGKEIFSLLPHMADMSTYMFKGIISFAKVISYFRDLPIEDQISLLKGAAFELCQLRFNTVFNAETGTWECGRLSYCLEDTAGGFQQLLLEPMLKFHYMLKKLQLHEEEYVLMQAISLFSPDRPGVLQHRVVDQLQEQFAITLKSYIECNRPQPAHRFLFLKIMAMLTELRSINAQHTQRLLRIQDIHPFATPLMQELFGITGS
Measured Emax at 48 h, 10 µM values are reported for all entries that follow.

{"item.smiles": "CC1(C)CCc2cc(OC[C@@H]3Cn4ccc(=O)nc4O3)ccc21", "target.or.system": "PXR (NR1I2); readout CYP3A4/5 mRNA (Homo sapiens)", "Emax at 48 h, 10 µM / %": 8.6}
{"item.smiles": "Cc1cccc(-c2ccc(OC[C@@H]3Cn4ccc(=O)nc4O3)cc2)c1C", "target.or.system": "PXR (NR1I2); readout CYP3A4/5 mRNA (Homo sapiens)", "Emax at 48 h, 10 µM / %": 89}
{"item.smiles": "Cc1cccc(-c2ccc(OC[C@@H]3Cn4c(C)cc(=O)nc4O3)cc2)c1C", "target.or.system": "PXR (NR1I2); readout CYP3A4/5 mRNA (Homo sapiens)", "Emax at 48 h, 10 µM / %": 49}
{"item.smiles": "CCc1cn2c(nc1=O)O[C@H](COc1ccc(-c3cccc(C)c3C)cc1)C2", "target.or.system": "PXR (NR1I2); readout CYP3A4/5 mRNA (Homo sapiens)", "Emax at 48 h, 10 µM / %": 8.2}
{"item.smiles": "CC(C)(C)c1ccc(OC[C@@H]2Cn3ccc(=O)nc3O2)cc1", "target.or.system": "PXR (NR1I2); readout CYP3A4/5 mRNA (Homo sapiens)", "Emax at 48 h, 10 µM / %": 0.37}
{"item.smiles": "O=c1ccn2c(n1)O[C@H](COc1ccc(-c3cccc(C(F)(F)F)c3)cc1)C2", "target.or.system": "PXR (NR1I2); readout CYP3A4/5 mRNA (Homo sapiens)", "Emax at 48 h, 10 µM / %": 251}
{"item.smiles": "Cc1cccc(-c2ccc(OC[C@@H]3Cn4cc(C)c(=O)nc4O3)cc2)c1C", "target.or.system": "PXR (NR1I2); readout CYP3A4/5 mRNA (Homo sapiens)", "Emax at 48 h, 10 µM / %": 32}
